# target.system: human GcgR (Homo sapiens)
# Sequence (P47871 26-477): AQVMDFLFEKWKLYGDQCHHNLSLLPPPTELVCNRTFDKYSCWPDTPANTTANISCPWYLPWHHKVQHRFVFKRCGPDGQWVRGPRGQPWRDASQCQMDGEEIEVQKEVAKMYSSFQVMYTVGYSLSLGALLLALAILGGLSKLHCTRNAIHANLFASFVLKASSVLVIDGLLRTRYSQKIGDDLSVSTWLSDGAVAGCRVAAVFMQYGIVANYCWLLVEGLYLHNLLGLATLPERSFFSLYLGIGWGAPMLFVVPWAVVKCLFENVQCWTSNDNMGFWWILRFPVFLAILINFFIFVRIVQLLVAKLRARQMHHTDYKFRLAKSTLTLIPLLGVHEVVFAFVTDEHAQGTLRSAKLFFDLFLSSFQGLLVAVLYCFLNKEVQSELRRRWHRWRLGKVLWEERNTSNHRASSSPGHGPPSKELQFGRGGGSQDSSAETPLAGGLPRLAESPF
# procedure.summary: Functional cAMP activity in the presence of 1% HSA
# Format: cell-based
# measurement.conditions: read-out: cAMP Rel EC50, hGcgR
pEC50: −log10 of the molar value. Starred links: 1 amine or outer side, 2 acyl side, 3 side chain; linkers in the order of their positions; H or OH if unused. Non-standard residues stand in square brackets, D forms with d. Groups on a side chain read outwards from the residue. No end group written: not given here. *: point of attachment. C20 diacid = O=C(O)CCCCCCCCCCCCCCCCCCC(=O)*; C18 diacid = O=C(O)CCCCCCCCCCCCCCCCC(=O)*; γGlu = O=C(O)[C@H](CCC(=O)[*:2])N[*:1]; αMe4Pal = C[C@](N)(Cc1ccncc1)C(=O)O; αMeY = C[C@](N)(Cc1ccc(O)cc1)C(=O)O; 4Pal = N[C@@H](Cc1ccncc1)C(=O)O; αMeL = CC(C)C[C@](C)(N)C(=O)O; αMeS = C[C@](N)(CO)C(=O)O; Orn = NCCC[C@H](N)C(=O)O; AEEA = NCCOCCOCC(=O)O; Aib = CC(C)(N)C(=O)O
Rule: pEC50 under 6 gives n, otherwise y.

Please review the entries below; each comes with its answer.
{"substance": "Y[Aib]QGTFTSD[4Pal][αMeS]Q[αMeL]LD[Orn]K([dE-γGlu-C18 diacid])AQ[αMe4Pal]QFIQ[αMeY]LIEGGPSSGEPPPSGGGE-NH2 [Example 1188]", "class": "y"}
{"substance": "H-Y[Aib]QGTFTSD[4Pal]S[Orn][αMeL]LD[Orn]K([γGlu-γGlu-C18 diacid])AQ[αMe4Pal]QFIEYLIAGGPSSGAPPPSGSEE-NH2 [Example 1000]", "class": "y"}
{"substance": "H-Y[Aib]QGTFTSD[4Pal]SQ[αMeL]LDKK([AEEA-γGlu-C18 diacid])AQ[αMe4Pal]AFIEYLIE[Aib]GPSSGAPPPSGE-NH2 [Example 881]", "class": "y"}
{"substance": "H-Y[Aib]QGTFTSDFS[Orn][αMeL]LDKK([AEEA-γGlu-C18 diacid])AQ[Aib]QFIEYLLAGGPSSGAPPPEGS-NH2 [Example 96]", "class": "n"}
{"substance": "H-Y[Aib]QGTFTSD[4Pal]SQ[αMeL]LD[Orn]K([γGlu-γGlu-C18 diacid])AQ[αMe4Pal]AFIE[αMeY]LIEGGPSSGAPPPSGSEE-NH2 [Example 1043]", "class": "n"}

Shifting focus to the substance that follows.
Incoming: Item H-Y[Aib]QGTFTSDYSK[αMeL]LDKK([AEEA-γGlu-C20 diacid])AQQAFVQWLIE[dA]GPSSGEPPPSEG-NH2 [Example 342] with pEC50 of 6 or above?
Outgoing: n
